Assay: Particle size distribution of aerosols by laser diffraction, Pari LC Sprint nebulizer
Assay type: physicochemical
Details: NAC 60 mg/mL in saline; mean
Procedure: The particle size distributions (PSD) of 5 formulations containing bromelain and acetylcysteine at different concentrations were determined. […] The nebulizer was connected to a USP induction port (throat), and particle size was measured at flow rate of 15 L/min in Spraytec particle sizer (Malvern Instruments, Malvern, UK). […] Results are expressed as D10, D50 and D90, indicating the particle diameter at 10, 50 and 90% in the cumulative distribution. […]
property-name: D90

Form field D90, entry CC(=O)N[C@@H](CS)C(=O)O [NAC, N-acetylcysteine] : 7.47 µm
